# System: Danio rerio larvae (5 dpf)
# Experiment Notes: difference in combined optomotor response to red, green and blue moving lines vs DMSO (percentage points); higher = stronger optomotor response than DMSO
# Setup Conditions: 10 µM; exposure time 6 h
Counter-ions that a name gives are not always drawn.
Measured difference by item
Measured Property: difference

[[record]]
molecule = "O=C1Nc2ccc(Cl)cc2[C@@](C#CC2CC2)(C(F)(F)F)O1"
measured = -17.4

[[record]]
molecule = "CC1(C)NC(=O)N(c2ccc([N+](=O)[O-])c(C(F)(F)F)c2)C1=O [Nilutamide]"
measured = -5.94

[[record]]
molecule = "CC(=O)NCCCS(=O)(=O)O [Acamprosate (calcium salt)]"
measured = 4.69

[[record]]
molecule = "CC[C@@]1(O)C(=O)OCc2c1cc1n(c2=O)Cc2cc3c(CN(C)C)c(O)ccc3nc2-1 [Topotecan (hydrochloride)]"
measured = 1.01

[[record]]
molecule = "Nc1ccc(S(N)(=O)=O)cc1 [Sulfanilamide]"
measured = 3.13


* * *

# Tested on: Danio rerio larvae (5 dpf)
# Experiment Notes: difference in habituation to acoustic stimuli vs DMSO (percentage points); higher = more habituation than DMSO
# Setup Conditions: 10 µM; exposure time 6 h
Where a name gives a salt, the structure may show the parent alone.
Measured difference in habituation to acoustic stimuli by item
Measured Property: difference in habituation to acoustic stimuli

[[record]]
compound = "CC[C@H](C)[C@@H]1NC(=O)[C@H](Cc2ccc(O)cc2)NC(=O)[C@@H](N)CSSC[C@@H](C(=O)N2CCC[C@H]2C(=O)N[C@@H](CC(C)C)C(=O)NCC(N)=O)NC(=O)[C@H](CC(N)=O)NC(=O)[C@H](CCC(N)=O)NC1=O [Oxytocin (acetate)]"
measured = 2.03

[[record]]
compound = "CC(C)(C)NCC(O)c1ccc(O)c(CO)c1 (configuration not stated) [Salbutamol (hydrochloride)]"
measured = -0.991

[[record]]
compound = "CC(=O)Nc1nnc(S(N)(=O)=O)s1 [Acetazolamide]"
measured = 6.2

[[record]]
compound = "CC(C)OC(=O)OCOP(=O)(CO[C@H](C)Cn1cnc2c(N)ncnc21)OCOC(=O)OC(C)C [Tenofovir Disoproxil (fumarate)]"
measured = 0.343

[[record]]
compound = "CN(C)c1cc(NC(=O)CNC(C)(C)C)c(O)c2c1C[C@H]1C[C@H]3[C@H](N(C)C)C(O)=C(C(N)=O)C(=O)[C@@]3(O)C(O)=C1C2=O"
measured = -5.95

[[record]]
compound = "CNCCC=C1c2ccccc2CCc2ccccc21 [Nortriptyline (hydrochloride)]"
measured = -3.34

[[record]]
compound = "COc1cc(C(=O)NS(=O)(=O)c2ccccc2C)ccc1Cc1cn(C)c2ccc(NC(=O)OC3CCCC3)cc12"
measured = 4.84


* * *

# System: Danio rerio larvae (5 dpf)
# Experiment Notes: difference in startle response vs DMSO (percentage points); higher = stronger startle than DMSO
# Setup Conditions: 10 µM; exposure time 6 h
Counter-ions that a name gives are not always drawn.
Measured difference in startle response by item
Measured Property: difference in startle response

[[record]]
molecule = "CC(C)NCC(O)COc1ccc(CC(N)=O)cc1 (racemic) [(±)-Atenolol]"
measured = -0.206

[[record]]
molecule = "OC(CCN1CCCCC1)(c1ccccc1)C1CC2C=CC1C2 (stereo unspecified) [Biperiden (hydrochloride)]"
measured = -7.39

[[record]]
molecule = "COc1ccc(Cl)cc1C(=O)NCCc1ccc(S(=O)(=O)NC(=O)NC2CCCCC2)cc1 [Glyburide (potassium salt)]"
measured = 5.16

[[record]]
molecule = "Cc1cc2c(s1)Nc1ccccc1N=C2N1CCN(C)CC1"
measured = -4.9

[[record]]
molecule = "Cc1ccc(NC(=O)c2ccc(CN3CCN(C)CC3)cc2)cc1Nc1nccc(-c2cccnc2)n1 [Imatinib (mesylate)]"
measured = 1.01

[[record]]
molecule = "CCCCCOc1ccc(-c2cc(-c3ccc(C(=O)N[C@H]4C[C@@H](O)[C@@H](O)NC(=O)[C@@H]5[C@@H](O)[C@@H](C)CN5C(=O)[C@H]([C@H](O)CC(N)=O)NC(=O)[C@H]([C@H](O)[C@@H](O)c5ccc(O)c(OS(=O)(=O)O)c5)NC(=O)[C@@H]5C[C@@H](O)CN5C(=O)[C@H]([C@@H](C)O)NC4=O)cc3)no2)cc1 [Micafungin (sodium salt)]"
measured = -8.33

[[record]]
molecule = "Cn1ccnc1S"
measured = 3.48

[[record]]
molecule = "O=c1[nH]cc(F)c(=O)[nH]1"
measured = -1.7

[[record]]
molecule = "CC[C@H](Nc1ncnc2[nH]cnc12)c1nc2cccc(F)c2c(=O)n1-c1ccccc1"
measured = 1.19

[[record]]
molecule = "CC(=O)OCC(=O)[C@@]12N=C(C)O[C@@H]1C[C@H]1[C@@H]3CCC4=CC(=O)C=C[C@]4(C)[C@H]3[C@@H](O)C[C@@]12C"
measured = 3.69

[[record]]
molecule = "CN(C)CCOC(c1ccccc1)c1ccccc1 [Diphenhydramine (hydrochloride)]"
measured = 0.108

[[record]]
molecule = "CN(C)[C@@H]1C(O)=C(C(N)=O)C(=O)[C@@]2(O)C(O)=C3C(=O)c4c(O)cccc4[C@@](C)(O)[C@H]3C[C@@H]12 [Tetracycline (hydrochloride)]"
measured = 1.04

[[record]]
molecule = "CC(C)(CO)c1cc2cc(NC(=O)C3(c4ccc5c(c4)OC(F)(F)O5)CC3)c(F)cc2n1C[C@@H](O)CO"
measured = 3.44

[[record]]
molecule = "CCN(CC)C(=O)C1(c2ccccc2)CC1CN (stereo unspecified) [Milnacipran (hydrochloride)]"
measured = -4.41

[[record]]
molecule = "C[C@H](CCC(=O)O)[C@H]1CC[C@H]2[C@@H]3[C@H](O)C[C@@H]4C[C@H](O)CC[C@]4(C)[C@H]3C[C@H](O)[C@]12C"
measured = 2.75

[[record]]
molecule = "COc1ccc(CC(C)(C)NC[C@H](O)c2cc(O)cc3c2OCC(=O)N3)cc1"
measured = -5.93


* * *

# Test system: Danio rerio larvae (5 dpf)
# Experiment Notes: difference in combined optomotor response to red, green and blue moving lines vs DMSO (percentage points); higher = stronger optomotor response than DMSO
# Setup Conditions: 10 µM; exposure time 6 h
Counter-ions that a name gives are not always drawn.
Measured difference by item
Measured Property: difference

[[record]]
compound = "CC(C)C[C@H](NC(=O)CNC(=O)c1cc(Cl)ccc1Cl)B1OC(=O)C(CC(=O)O)(CC(=O)O)O1"
measured_property = "difference"
measured = 5.88

[[record]]
compound = "COC(=O)C1=C(C)NC(C)=C(C(=O)OCC(C)C)C1c1ccccc1[N+](=O)[O-] (centres undefined) [Nisoldipine]"
measured_property = "difference"
measured = -16.9

[[record]]
compound = "CC12CC3CC(C)(C1)CC(N)(C3)C2 [Memantine (hydrochloride)]"
measured_property = "difference"
measured = 3.21

[[record]]
compound = "C[C@]12C=CC(=O)N[C@@H]1CC[C@@H]1[C@@H]2CC[C@]2(C)[C@@H](C(=O)Nc3cc(C(F)(F)F)ccc3C(F)(F)F)CC[C@@H]12 [Dutasteride]"
measured_property = "difference"
measured = -3.79


* * *

# Test system: Danio rerio larvae (5 dpf)
# Experiment Notes: difference in startle response vs DMSO (percentage points); higher = stronger startle than DMSO
# Setup Conditions: 10 µM; exposure time 6 h
Where a name gives a salt, the structure may show the parent alone.
Classify as follows. Reported difference in startle response greater than or equal to -0.2: fulfilled. Reported difference in startle response below: not fulfilled.

[[record]]
molecule = "CC(C)(C(=O)O)c1ccc(C(O)CCCN2CCC(C(O)(c3ccccc3)c3ccccc3)CC2)cc1 (stereo not given) [Fexofenadine (hydrochloride)]"
class_name = "fulfilled"

[[record]]
molecule = "Cc1ccnc2c1NC(=O)c1cccnc1N2C1CC1"
class_name = "fulfilled"

[[record]]
molecule = "CC(C)OC(=O)CCC/C=C\\C[C@@H]1[C@@H](/C=C/C(F)(F)COc2ccccc2)[C@H](O)C[C@@H]1O"
class_name = "fulfilled"

[[record]]
molecule = "O=C(O)COCCN1CCN([C@H](c2ccccc2)c2ccc(Cl)cc2)CC1 [(R)-Cetirizine (hydrochloride)]"
class_name = "not fulfilled"

[[record]]
molecule = "CCNC(=O)CCC/C=C\\C[C@@H]1[C@@H](/C=C/[C@@H](O)CCc2ccccc2)[C@H](O)C[C@@H]1O [17-phenyl trinor Prostaglandin F2α ethyl amide]"
class_name = "not fulfilled"

[[record]]
molecule = "CCC1=C(C)CN(C(=O)NCCc2ccc(S(=O)(=O)NC(=O)N[C@H]3CC[C@H](C)CC3)cc2)C1=O [Glimepiride]"
class_name = "fulfilled"

[[record]]
molecule = "CCOC(=O)c1ccc(C#Cc2ccc3c(c2)C(C)(C)CCS3)nc1"
class_name = "not fulfilled"

[[record]]
molecule = "O=P(O)(O)C(O)(Cn1ccnc1)P(=O)(O)O [Zoledronic Acid (hydrate)]"
class_name = "fulfilled"

[[record]]
molecule = "CC(c1cc2ccccc2s1)N(O)C(N)=O (stereo not given)"
class_name = "not fulfilled"

[[record]]
molecule = "Cc1cccc(CN2CCN(C(c3ccccc3)c3ccc(Cl)cc3)CC2)c1 (stereo not given) [Meclizine (hydrochloride)]"
class_name = "not fulfilled"

[[record]]
molecule = "CC(C)(O)c1ccccc1CC[C@@H](SCC1(CC(=O)O)CC1)c1cccc(/C=C/c2ccc3ccc(Cl)cc3n2)c1 [Montelukast (sodium salt)]"
class_name = "fulfilled"

[[record]]
molecule = "CCN1C(=O)NC(c2ccccc2)C1=O (stereo not given)"
class_name = "fulfilled"

[[record]]
molecule = "Nc1cc(N2CCCCC2)nc(N)[n+]1[O-]"
class_name = "fulfilled"

[[record]]
molecule = "C[C@]12C=CC(=O)N[C@@H]1CC[C@@H]1[C@@H]2CC[C@]2(C)[C@@H](C(=O)Nc3cc(C(F)(F)F)ccc3C(F)(F)F)CC[C@@H]12 [Dutasteride]"
class_name = "not fulfilled"

[[record]]
molecule = "COc1cccc2c1C(=O)c1c(O)c3c(c(O)c1C2=O)C[C@@](O)(C(=O)CO)C[C@@H]3O[C@H]1C[C@H](N)[C@H](O)[C@H](C)O1 [Doxorubicin (hydrochloride)]"
class_name = "fulfilled"

